- run-description: activity coefficient (dimensionless); of the first substance listed, at infinite dilution; xn = mol fraction of the nth substance listed
- condition-label: 368.15 K; 101 kPa; Liquid; Chromatography; x1 = 0
Each entry below carries its reported activity coefficient.
Form: value (number only, do not type unit).

Q: Item under review: CCO [ethanol] + CCCC[N+](C)(CCCC)CCCC.COS(=O)(=O)[O-] . Reported activity coefficient?
A: 0.17

Q: What value of measured activity coefficient is listed for CC(C)(C)O [2-methylpropan-2-ol] + CCCC[N+](C)(CCCC)CCCC.COS(=O)(=O)[O-] ?
A: 0.23

Q: For CCCO [propan-1-ol] + CCCC[N+](C)(CCCC)CCCC.COS(=O)(=O)[O-] , what is its reported activity coefficient?
A: 0.18

Q: Look at this compound and give its reported activity coefficient. CO [methanol] + CCCC[N+](C)(CCCC)CCCC.COS(=O)(=O)[O-]
A: 0.13

Q: I have this compound here, CCC(C)O (stereo unspecified) [butan-2-ol] + CCCC[N+](C)(CCCC)CCCC.COS(=O)(=O)[O-] , and I need its recorded activity coefficient.
A: 0.2

Please examine the following record next.
Q: Report activity coefficient for CCCCO [butan-1-ol] + CCCC[N+](C)(CCCC)CCCC.COS(=O)(=O)[O-] please.
A: 0.22

* * *

- run-description: activity coefficient (dimensionless); of the first substance listed, at infinite dilution; xn = mol fraction of the nth substance listed
- condition-label: 338.15 K; 101 kPa; Liquid; Chromatography; x1 = 0
endpoint-name: activity coefficient

Some compounds with known activity coefficient results, for comparison:
Q: # query: activity coefficient of entry CC(C)(C)O [2-methylpropan-2-ol] + CCCC[N+](C)(CCCC)CCCC.COS(=O)(=O)[O-]
A: 0.32

Q: # activity coefficient lookup, item CCCO [propan-1-ol] + CCCC[N+](C)(CCCC)CCCC.COS(=O)(=O)[O-]
A: 0.29

Q: Recorded activity coefficient for CCCCO [butan-1-ol] + CCCC[N+](C)(CCCC)CCCC.COS(=O)(=O)[O-] , please?
A: 0.4

Q: Record request: activity coefficient value, item CCO [ethanol] + CCCC[N+](C)(CCCC)CCCC.COS(=O)(=O)[O-]
A: 0.24

Q: Recorded activity coefficient for CO [methanol] + CCCC[N+](C)(CCCC)CCCC.COS(=O)(=O)[O-] , please?
A: 0.16

More entries:
Q: Find the recorded activity coefficient belonging to CCC(C)O (stereo unspecified) [butan-2-ol] + CCCC[N+](C)(CCCC)CCCC.COS(=O)(=O)[O-] and report it.
A: 0.38

* * *

- run-description: activity coefficient (dimensionless); of the first substance listed, at infinite dilution; xn = mol fraction of the nth substance listed
- condition-label: 348.15 K; 101 kPa; Liquid; Chromatography; x1 = 0
endpoint-name: activity coefficient

A selection of reference data follows.
Q: What does the data say about its activity coefficient? Entry: CCCCO [butan-1-ol] + CCCC[N+](C)(CCCC)CCCC.COS(=O)(=O)[O-]
A: 0.31

Q: Dear colleague, I am looking for the recorded activity coefficient of the following molecule: CC(C)(C)O [2-methylpropan-2-ol] + CCCC[N+](C)(CCCC)CCCC.COS(=O)(=O)[O-]
A: 0.28

Q: Would you mind telling me what activity coefficient value was observed for CCC(C)O (stereo unspecified) [butan-2-ol] + CCCC[N+](C)(CCCC)CCCC.COS(=O)(=O)[O-] ?
A: 0.29

Q: Recorded activity coefficient for CO [methanol] + CCCC[N+](C)(CCCC)CCCC.COS(=O)(=O)[O-] , please?
A: 0.15

Q: Query (molecule): CCO [ethanol] + CCCC[N+](C)(CCCC)CCCC.COS(=O)(=O)[O-] ; field requested: activity coefficient
A: 0.2

More entries:
Q: Value lookup for activity coefficient; key = CCCO [propan-1-ol] + CCCC[N+](C)(CCCC)CCCC.COS(=O)(=O)[O-]
A: 0.24
